- Tested on: Saccharomyces cerevisiae;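 further: PSI is a weighted mean of sequencing reads over stability bins, variants kept only with over 10 reads, mCherry proximal and sfGFP distal, peptide attached via GGGS linker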
- Assay Explanation: protein stability index of tFT-peptide fusion (C-terminal peptide) (PSI (0-1 scale)); higher = more stable (slower turnover)
- Condition Description: genetic background: wild type; temperature: 30 C
Quick rule for you: protein stability index at 0.7 or higher means 1.0, lower means 0.0.

Chain Sequence	Assigned Class
HNRSFLIPFFPF	0.0
WGGGGVRGGMGG	1.0
EIAGKGFRLGEW	1.0
ERPIRPQCVHRM	1.0
PPPASRTPSNLP	1.0
SRRSNMRNMRTT	0.0
YLLYSDSLCFVT	0.0
PPPQSPPLLLVL	0.0
STVPDRPRLPVY	0.0
IVCAVTSIFLFF	0.0
PSAPRPSPPALP	1.0
